# key: entry, value: pEC50
Target: T1, recombinant human CTGF protein (R&D Systems, SEQ ID NO: 79) (human, UniProt P29279 27-349)
T1 construct: Bought; also called human CTGF/CNN2; huCTGF
T1 sequence: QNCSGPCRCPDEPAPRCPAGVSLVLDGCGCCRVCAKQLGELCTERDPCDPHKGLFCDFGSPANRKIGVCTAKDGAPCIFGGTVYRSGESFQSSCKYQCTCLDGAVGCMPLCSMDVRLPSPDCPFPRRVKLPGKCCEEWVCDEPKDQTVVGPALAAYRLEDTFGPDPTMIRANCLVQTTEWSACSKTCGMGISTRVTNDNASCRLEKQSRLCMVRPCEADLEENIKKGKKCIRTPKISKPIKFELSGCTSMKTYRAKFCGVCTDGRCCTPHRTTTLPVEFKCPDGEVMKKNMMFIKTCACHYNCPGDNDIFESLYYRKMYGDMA
Assay: HTRF, 1 nM biotinylated human CTGF
The quantity pEC50 is defined as the negative base-10 logarithm of the molar concentration.

// solved cases for pEC50 follow
Query: I am curious: what pEC50 value has been reported for fusion protein of SEQ ID NO: 71 (designed binder, not shown: C-terminal His-tag) QDSTSDLIPAPPLSKVPLQQNFQDNQFQGKWYVVGLAGNAILREDKYPAKMFATIYELKEDKSYDVTSVRFENKSCVYTIKTFVPGSQPGEFTTGNIKSAPGQTSTLVRVVSTNYNQHAMVFFKHVSQNREFFVITLYGRTKELTSELKENFIRFSKSLGLPENHIVFPVPIDQCIDGGGGGSGGGGSGGGGSQDSTSDLIPAPPLSKVPLQQNFQDNQFQGKWYVVGWAGNVKLREDKQPQKMSATIYELKEDKSYDVTEVVFEQKKCHYIIKTFVPGSQPGEFTAGDIKSPPGYTSSLVRVVSTNYNQHAMVFFKKVSQNREFFWITLYGRTKELTSELKENFIRFSKSLGLPENHIVFPVPIDQCIDG ?
Reply: 9.03

Query: Would you kindly repeat that for fusion protein of SEQ ID NO: 63 (designed binder, not shown: C-terminal His-tag) QDSTSDLIPAPPLSKVPLQQNFQDNQFQGKWYVVGRAGNNQLREDKSPPKMWATIYELKEDKSYDVTHVHFSTKKCRYIIDTFVPGSQPGEFTAGAIKSGPGLTSPLVRVVSTNYNQHAMVFFKWVTQNREWFTITLYGRTKELTSELKENFIRFSKSLGLPENHIVFPVPIDQCIDGGGGGSGGGGSGGGGSQDSTSDLIPAPPLSKVPLQQNFQDNQFQGKWYVVGLAGNAILREDKQPAKMFATIYELKEDKSYDVTSVRFEAKSCKYTIKTFVPGSQPGEFTAGYIKSAPGQTSTLVRVVSTNYNQHAMVFFKHVTQNREIFVITLYGRTKELTSELKENFIRFSKSLGLPENHIVFPVPIDQCIDG ?
Reply: 9.24

// below: pEC50 requested for another binder
Query: State the recorded pEC50 for this entry: fusion protein of SEQ ID NO: 72 (designed binder, not shown: C-terminal His-tag) QDSTSDLIPAPPLSKVPLQQNFQDNQFQGKWYVVGLAGNAILREDKYPAKMFATIYELKEDKSYDVTSVRFENKSCVYTIKTFVPGSQPGEFTTGNIKSAPGQTSTLVRVVSTNYNQHAMVFFKHVSQNREFFVITLYGRTKELTSELKENFIRFSKSLGLPENHIVFPVPIDQCIDGGGGGSGGGGSGGGGSQDSTSDLIPAPPLSKVPLQQNFQDNQFQGKWYVVGLAGNYRLREDKDPSKMGATIYELKEDKSYDVTQVQFDDKKCLYVIETFVPGSQPGEFTLGAIKSYPGLTSQLVRVVSTNYNQHAMVFVKKVWPNLEYFQIVLYGRTKELTSELKENFIRFSKSLGLPENHIVFPVPIDQCIDG
Reply: 9.17
